The reported measurements were obtained from ChEMBL document CHEMBL3885861.

Species: Rattus norvegicus
protocol summary: Open TG-GATES - Regimen: Single
Assay type: toxicity, organism-based, Sprague-Dawley
Design: regimen Single, gender Male, age 6 weeks
conditions used: in vivo, po, 0 mg/kg, 24 h, tissue Blood, route gavage, dose level Control
Provide the recorded APTT for the entries that follow.

Lookup: APTT for CCc1cc(C(N)=S)ccn1 [ETHIONAMIDE] ?
Found: 16.3 s

Lookup: Give its APTT value. Item: CSc1ccc2c(c1)N(CCC1CCCCN1C)c1ccccc1S2 (stereo not given)
Found: 15.8 s

Lookup: GET /values?readout=APTT&item= `O=C(O)c1cc(/N=N/c2ccc(S(=O)(=O)Nc3ccccn3)cc2)ccc1O`
Found: 18.9 s

Hi, could you look up APTT for each item in my list?
1. NC(=O)N1c2ccccc2C=Cc2ccccc21 [CARBAMAZEPINE]
2. Clc1ccccc1CN1CCc2sccc2C1

Found:
["21.9 s", "20.8 s"]
